# Test system: HeLa
# assay summary: Cytotoxicity against human HeLa cells after 72 hrs
# Format: functional, cell-based
result type: pIC50
Please express pIC50 as -log10 of the molar concentration.

Answered cases to consult:
[
  {
    "smiles data": "C/C=C(\\C)C(=O)O[C@@H]1[C@@H](O)[C@@H]2O[C@H]3[C@H](O[C@@H](CCC)CCCCC[C@H](OC(C)=O)C(=O)CCC(=O)OC[C@@H](O2)[C@H]1OC(=O)/C=C/c1ccccc1)O[C@H](C)[C@H](OC(C)=O)[C@@H]3O",
    "target desc": "HeLa",
    "pIC50": 7.49
  },
  {
    "smiles data": "C/C=C(\\C)C(=O)O[C@@H]1[C@@H](O)[C@@H]2O[C@H]3[C@H](O[C@@H](CCC)CCCCC[C@H](OC(C)=O)C(=O)CCC(=O)OC[C@@H](O2)[C@H]1OC(=O)/C=C/c1ccccc1)O[C@H](C)[C@H](O)[C@@H]3O",
    "target desc": "HeLa",
    "pIC50": 5.37
  },
  {
    "smiles data": "C/C=C(\\C)C(=O)O[C@@H]1[C@@H](O)[C@@H]2O[C@H]3[C@H](O[C@@H](CCC)CCCCCCC(=O)CCC(=O)OC[C@@H](O2)[C@H]1OC(=O)/C=C/c1ccccc1)O[C@H](C)[C@H](O)[C@@H]3O",
    "target desc": "HeLa",
    "pIC50": 5.60
  }
]

Provide pIC50 value for the following molecule: `C/C=C(\C)C(=O)O[C@@H]1[C@@H](O)[C@@H]2O[C@H]3[C@H](O[C@@H](CCC)CCCCCCC(=O)CCC(=O)OC[C@@H](O2)[C@H]1OC(=O)/C=C/c1ccccc1)O[C@H](C)[C@H](OC(C)=O)[C@@H]3O`
7.19

Provide pIC50 value for the following molecule: `C/C=C(\C)C(=O)O[C@@H]1[C@@H](O)[C@@H]2O[C@H]3[C@H](O[C@@H](CCC)CCCCC[C@H](O)C(=O)CCC(=O)OC[C@@H](O2)[C@H]1OC(=O)/C=C/c1ccccc1)O[C@H](C)[C@H](OC(C)=O)[C@@H]3O`
5.82

* * *

# Tested on: L929
# assay summary: Cytotoxicity against mouse L929 cells after 72 hrs
# Format: cell-based
# settings: L929, 72 h
result type: pIC50
Please express pIC50 as -log10 of the molar concentration.

Answered cases to consult:
[
  {
    "smiles data": "C/C=C(\\C)C(=O)O[C@@H]1[C@@H](O)[C@@H]2O[C@H]3[C@H](O[C@@H](CCC)CCCCCCC(=O)CCC(=O)OC[C@@H](O2)[C@H]1OC(=O)/C=C/c1ccccc1)O[C@H](C)[C@H](OC(C)=O)[C@@H]3O",
    "target desc": "L929",
    "pIC50": 7.11
  },
  {
    "smiles data": "C/C=C(\\C)C(=O)O[C@@H]1[C@@H](O)[C@@H]2O[C@H]3[C@H](O[C@@H](CCCCC)CCCCCCC(=O)CCC(=O)OC[C@@H](O2)[C@H]1OC(=O)/C=C/c1ccccc1)O[C@H](C)[C@H](OC(C)=O)[C@@H]3O",
    "target desc": "L929",
    "pIC50": 8.13
  }
]

Provide pIC50 value for the following compound: `C/C=C(\C)C(=O)O[C@@H]1[C@@H](O)[C@@H]2O[C@H]3[C@H](O[C@@H](CCC)CCCCC[C@H](OC(C)=O)C(=O)CCC(=O)OC[C@@H](O2)[C@H]1OC(=O)/C=C/c1ccccc1)O[C@H](C)[C@H](OC(C)=O)[C@@H]3O`
6.87
